Data credit: ChEMBL document CHEMBL1130128

Biological target: Arachidonate 5-lipoxygenase (Bos taurus)
Sequence (Q9BEG3 whole entry): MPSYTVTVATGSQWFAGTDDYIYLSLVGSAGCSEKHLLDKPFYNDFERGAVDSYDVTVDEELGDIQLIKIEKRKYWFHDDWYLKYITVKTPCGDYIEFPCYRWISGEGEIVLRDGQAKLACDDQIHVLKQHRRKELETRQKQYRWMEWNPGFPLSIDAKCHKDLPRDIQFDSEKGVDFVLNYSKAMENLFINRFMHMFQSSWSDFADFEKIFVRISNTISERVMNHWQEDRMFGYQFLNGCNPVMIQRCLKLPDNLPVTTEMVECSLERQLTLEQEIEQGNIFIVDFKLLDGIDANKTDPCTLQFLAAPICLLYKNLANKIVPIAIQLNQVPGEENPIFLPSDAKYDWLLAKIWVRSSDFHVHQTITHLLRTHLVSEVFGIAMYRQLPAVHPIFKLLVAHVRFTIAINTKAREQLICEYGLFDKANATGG
Assay: 5-LO inhibitory activity, measured by production of 5-hydroxyeicosatetraenoic acid (5-HETE) and leukotriene B4 (LTB4) in bovine polymorphonuclear leukocytes
quantityKind: IC50 (µM)

Known results for compounds:
compound | IC50 [µM]
O=C(O)c1ccc(C(=O)c2ccc3c(c2O)C(=O)c2c(O)cccc2C3)cc1 | 2
CC(C)C(C(=O)NO)c1ccc2c(c1O)C(=O)c1c(O)cccc1C2 (centres undefined) | 6
CC(C)C(C(=O)N(C)O)c1ccc2c(c1O)C(=O)c1c(O)cccc1C2 (centres undefined) | 5

1. O=C(CCCCc1ccc2c(c1O)C(=O)c1c(O)cccc1C2)NO
2. O=C(NO)c1ccc(Cc2ccc3c(c2O)C(=O)c2c(O)cccc2C3)cc1
3. CCCCOc1ccc(CC(=O)NO)cc1
IN: Put the items in order so that reported IC50 rises from first to last. Could you list the labels in the order requested?
OUT: 1, 2, 3

I. CC(C(=O)O)c1ccc2c(c1O)C(=O)c1c(O)cccc1C2 (centres undefined)
II. O=C(O)CCCCCc1ccc2c(c1O)C(=O)c1c(O)cccc1C2
IN: Of I and II , which carries the smaller reported IC50 figure? Give the chosen item's label as your response.
OUT: II

1. O=C(O)CCCCc1ccc2c(c1O)C(=O)c1c(O)cccc1C2
2. CC(C(=O)N(C)O)c1ccc2c(c1O)C(=O)c1c(O)cccc1C2 (centres undefined)
IN: Could you determine which record has the numerically smaller IC50? Candidates: 1 and 2 Selection: enter the item's label.
OUT: 2
